Just for reference, the supplement of paper PMC8728848 is where these values come from.

Recorded glycan array binding signal (z-score) values for a group of binders are listed next.
# measured.target: Gal(b1-4)GlcNAc(b1-2)[Gal(b1-4)GlcNAc(b1-6)]Man(a1-6)[Gal(b1-4)GlcNAc(b1-2)Man(a1-3)]Man(b1-4)GlcNAc(b1-4)GlcNAc
# test.protocol: glycan array binding signal (z-score within array); higher = stronger binding
# test.settings: glycan notation: IUPAC condensed, linker removed
The sample as a whole holds a higher share of the strongest signals than the screen did.

binder	glycan array binding signal (z-score)
Pbx2CASH domain (Cryptococcus neoformans) (protein) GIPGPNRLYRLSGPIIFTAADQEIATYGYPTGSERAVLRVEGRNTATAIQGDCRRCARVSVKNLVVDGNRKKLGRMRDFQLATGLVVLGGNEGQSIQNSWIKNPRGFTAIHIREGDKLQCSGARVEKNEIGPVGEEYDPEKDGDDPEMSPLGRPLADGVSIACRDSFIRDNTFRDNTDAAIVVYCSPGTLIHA	-0.632
Pwp1 (Candida glabrata) (protein) MGSSHHHHHHSSGLVPRGSHMASANPISITNVCQFPDNWARTAGFQATTVRLGLTIASNTYKELLNYPGLFNFATQKATVTQPNFSISGFPFFTGLYGLTVWPINLLVELQGYFVPPESGNYTFTLQGSDDAAILFFANPSTFACGSQNDWPQPREADITVTDTLVPSRTLYLVKGVAYPIRIAYYNGSGDGKLNVSFKDPSGTTHTDWKGYVWQYSNTCSTCTYT	0.454
HA-11100 (Pseudomonas aeruginosa), Q02G51_PSEAB (protein) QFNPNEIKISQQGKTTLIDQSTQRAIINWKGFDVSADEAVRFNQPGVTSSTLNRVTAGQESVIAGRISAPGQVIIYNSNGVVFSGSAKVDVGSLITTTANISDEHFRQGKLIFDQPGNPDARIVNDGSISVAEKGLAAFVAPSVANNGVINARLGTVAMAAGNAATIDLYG	7.59
